# Test system: ECU
# Experimental protocol: qHTS profiling for inhibitors of Plasmodium falciparum proliferation (AID 504749); note: nearly all actives have a fitted effect of over 60% in size
# Reported conditions: P. falciparum in erythrocytes, SYBR Green DNA, 72 h; series mostly up to 12.8 µM
Results filed as inconclusive are left out. Calls of active or inactive are those of the source. Calls come from the whole dose curve; as a rule, active = well fitted inhibition curve with a large enough effect; inconclusive = small, poorly fitted or top-dose-only effect; inactive = flat fitted curve, though single readings scatter.
Classes used: active, inactive

[[record]]
compound = "C[C@@H]1CCC[C@H](C)N1NC(=O)c1ccc(Cl)c(S(N)(=O)=O)c1"
assayed_target = "ECU"
label_class = "inactive"

[[record]]
compound = "CC(C)(O/N=C(\\C(=O)N[C@@H]1C(=O)N2C(C(=O)[O-])=C(C[n+]3ccccc3)CS[C@@H]12)c1csc(N)n1)C(=O)O"
assayed_target = "ECU"
label_class = "inactive"

[[record]]
compound = "CC[C@H](NC(C)C)[C@H](O)c1ccc(O)c(O)c1"
assayed_target = "ECU"
label_class = "inactive"

[[record]]
compound = "C[C@H](NCCc1ccc(O)cc1)[C@@H](O)c1ccc(O)cc1"
assayed_target = "ECU"
label_class = "inactive"

[[record]]
compound = "N[C@@H](CO)C(=O)NNCc1ccc(O)c(O)c1O"
assayed_target = "ECU"
label_class = "inactive"

[[record]]
compound = "Cn1c(=O)c2c(ncn2C[C@@H](O)CO)n(C)c1=O"
assayed_target = "ECU"
label_class = "inactive"

[[record]]
compound = "CC1(C)Oc2ccc(C#N)cc2[C@H](N2CCCC2=O)[C@H]1O"
assayed_target = "ECU"
label_class = "inactive"

[[record]]
compound = "C[C@@H](C(=O)O)c1ccc(C(=O)c2cccs2)cc1"
assayed_target = "ECU"
label_class = "inactive"

[[record]]
compound = "CCn1cc(C(=O)O)c(=O)c2cc(F)c(N3CCN[C@@H](C)C3)c(F)c21"
assayed_target = "ECU"
label_class = "inactive"

[[record]]
compound = "CCN(CC)CCC[C@H](C)Nc1c2ccc(Cl)cc2nc2ccc(OC)cc12"
assayed_target = "ECU"
label_class = "active"

[[record]]
compound = "O=c1[nH]cnc2c1ncn2C1OC(CO)C(O)C1O (stereo not given)"
assayed_target = "ECU"
label_class = "inactive"

[[record]]
compound = "NC(=O)OC[C@H](O)COc1ccc(Cl)cc1"
assayed_target = "ECU"
label_class = "inactive"

[[record]]
compound = "CC(C)(C)NC[C@H](O)c1cc(O)cc(O)c1"
assayed_target = "ECU"
label_class = "inactive"

[[record]]
compound = "CN1CCCC[C@@H]1CCN1c2ccccc2Sc2ccc(S(C)=O)cc21 (stereo not given in full)"
assayed_target = "ECU"
label_class = "inactive"

[[record]]
compound = "C[N+](C)(C)CC(O)CC(=O)O (stereo not given)"
assayed_target = "ECU"
label_class = "inactive"

[[record]]
compound = "CO/N=C(/C(=O)NC1C(=O)N2C(C(=O)O)=C(CSc3nc(=O)c(O)nn3C)CSC12)c1csc(N)n1 (stereo not given)"
assayed_target = "ECU"
label_class = "inactive"

[[record]]
compound = "CC[C@@]12CCCN3CCc4c(n(c5ccccc45)C(=O)C1)[C@H]32"
assayed_target = "ECU"
label_class = "inactive"

[[record]]
compound = "CC(=O)N(CC(O)CN(C(C)=O)c1c(I)c(C(=O)NC[C@@H](O)CO)c(I)c(C(=O)NC[C@@H](O)CO)c1I)c1c(I)c(C(=O)NC[C@@H](O)CO)c(I)c(C(=O)NC[C@@H](O)CO)c1I"
assayed_target = "ECU"
label_class = "inactive"

[[record]]
compound = "CC(C)N1CCN(c2ccc(OC[C@@H]3CO[C@@](Cn4cncn4)(c4ccc(Cl)cc4Cl)O3)cc2)CC1"
assayed_target = "ECU"
label_class = "inactive"

[[record]]
compound = "C[N+]1(C)CCC[C@@H](OC(=O)C(O)(c2ccccc2)c2ccccc2)C1"
assayed_target = "ECU"
label_class = "inactive"

[[record]]
compound = "CN(N=O)C(=O)N[C@H]1[C@@H](O)[C@H](O)[C@H](CO)O[C@@H]1O"
assayed_target = "ECU"
label_class = "inactive"

[[record]]
compound = "CCC[C@H]1C(=O)N2C(N(C)C)=Nc3ccc(C)cc3N2C1=O"
assayed_target = "ECU"
label_class = "inactive"

[[record]]
compound = "CCN[C@@H]1C[C@H](C)S(=O)(=O)c2sc(S(N)(=O)=O)cc21"
assayed_target = "ECU"
label_class = "inactive"

[[record]]
compound = "O=C(O)/C=C\\c1ccc(Cn2ccnc2)cc1"
assayed_target = "ECU"
label_class = "inactive"

[[record]]
compound = "CO/N=C(\\C(=O)N[C@@H]1C(=O)N2C(C(=O)O)=C(COC(C)=O)CS[C@@H]12)c1csc(N)n1"
assayed_target = "ECU"
label_class = "inactive"

